The measurements presented in this section are drawn from ChEMBL document CHEMBL1201862.

measurement_target: Troponin, cardiac muscle (Homo sapiens, UniProt P19429+P45379+P63316)
method_summary: Fluorescence-based biochemical high throughput dose response assay for activators of the calcium sensitivity of cardiac Regulated Thin Filaments (RTF). [Related pubchem assays (depositor defined):AID493008, AID493018, AID504382, AID504383]
Format: protein-complex assay
Calls of active or inactive are those of the source.
quantity_name: EC50

Guide cases for EC50, answers given:
- CCN1/C(=C/c2ccc3cc(C)ccc3[n+]2CC)Sc2ccccc21: 10.4 µM (inactive)
- COc1ccc(/C=N/NC(=O)c2cc(OC)c(OC)c(OC)c2)cc1CN1CCc2cc(OC)c(OC)cc2C1C (centres undefined): > 71.5 µM (inactive)
- COc1cccc(CC(NC(C)=O)C(=O)NC2CCN(c3nc(C)cc(C)c3C#N)CC2)c1OC (centres undefined): > 71.5 µM (inactive)

May I ask what EC50 has been recorded for Cc1ccc(S(=O)(=O)NCCCCCC(=O)Nc2ccccc2C)cc1 ? > 71.5 µM (inactive)

----------
measurement_target: Tyrosyl-DNA phosphodiesterase 2 (Homo sapiens)
Sequence (O95551 whole entry): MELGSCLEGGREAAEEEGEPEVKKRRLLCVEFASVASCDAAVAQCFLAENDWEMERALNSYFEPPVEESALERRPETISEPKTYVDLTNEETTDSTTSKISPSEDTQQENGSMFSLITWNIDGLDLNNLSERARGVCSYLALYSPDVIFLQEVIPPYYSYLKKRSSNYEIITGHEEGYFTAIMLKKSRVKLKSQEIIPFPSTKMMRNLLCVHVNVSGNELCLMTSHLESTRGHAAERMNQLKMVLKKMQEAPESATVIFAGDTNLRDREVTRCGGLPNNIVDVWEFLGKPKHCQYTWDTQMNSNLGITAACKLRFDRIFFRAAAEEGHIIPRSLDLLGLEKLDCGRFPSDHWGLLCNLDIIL
method_summary: human TDP2 enzyme inhibitors, dose response, biochemical, epi absorbance, IC50 (AID 743297)
The source made the active and inactive calls.
Classes to choose from: active, inactive

Known results for compounds:
- COC(=O)C(O)(c1c(C)[nH]n(-c2ccccc2)c1=O)C(F)(F)F (centres undefined): inactive
- O=C1C(Nc2ccc(O)cc2)=C/C(=N/S(=O)(=O)c2cccs2)c2ccccc21: active
- CC(=O)N1CCn2c3c(c(=O)c4cc(C)ccc42)CCC31 (centres undefined): inactive

We now examine a further compound.
Assay outcome for COc1ccc(S(=O)(=O)Nc2cc(SCC(=O)O)c(O)c3ccccc23)cc1 : what was it? inactive

----------
# reported IC50; entries follow
measurement_target: Rac GTPase-activating protein 1 (Homo sapiens, UniProt Q9H0H5)
Sequence (Q9H0H5 whole entry): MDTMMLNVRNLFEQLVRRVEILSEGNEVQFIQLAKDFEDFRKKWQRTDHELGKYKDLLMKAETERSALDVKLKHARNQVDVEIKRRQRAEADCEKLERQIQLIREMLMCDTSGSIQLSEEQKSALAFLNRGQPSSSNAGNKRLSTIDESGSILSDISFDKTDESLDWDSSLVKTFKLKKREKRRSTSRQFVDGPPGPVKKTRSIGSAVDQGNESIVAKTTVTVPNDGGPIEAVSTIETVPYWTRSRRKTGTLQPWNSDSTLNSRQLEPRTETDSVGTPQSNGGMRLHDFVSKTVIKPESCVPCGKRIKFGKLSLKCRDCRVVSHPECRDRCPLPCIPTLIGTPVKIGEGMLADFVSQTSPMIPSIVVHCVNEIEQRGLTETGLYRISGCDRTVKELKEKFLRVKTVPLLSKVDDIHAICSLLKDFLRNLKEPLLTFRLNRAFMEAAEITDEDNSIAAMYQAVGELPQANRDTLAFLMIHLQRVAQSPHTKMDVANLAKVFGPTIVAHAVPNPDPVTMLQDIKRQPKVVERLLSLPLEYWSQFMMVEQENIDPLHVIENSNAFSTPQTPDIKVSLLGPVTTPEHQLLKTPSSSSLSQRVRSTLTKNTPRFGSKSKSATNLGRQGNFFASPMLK
method_summary: MgcRacGAP GTPase-activating activity inhibitors, confirmation, biochemical, ADP Hunter fluorescence, primary and confirmatory (AID 624330)
Assay type: functional
Active and inactive are the calls of the source.

Guide cases for IC50, answers given:
* CC(=O)NN1C(=O)/C(=C\c2ccc(O)cc2)SC1=S | 121 µM (active)
* COc1cc(/C(C)=N/NC(=O)C(O)(c2ccccc2)c2ccccc2)ccc1O | 104 µM (active)
* N=C(N)c1ccc(/C=C/c2ccc(C(=N)N)cc2O)cc1 | 39 µM (active)
* COc1ccc(N2CCN(C(=O)c3ccc(C[S+]([O-])c4cccc(Cl)c4)o3)CC2)cc1 (stereo unspecified) | 326 µM (active)
* COc1cc(N=Nc2ccc(C(=O)N(C)C)cc2)c(C)cc1N | 52.9 µM (active)

Short answer please: IC50, Rac GTPase-activating protein 1 (Homo sapiens, UniProt Q9H0H5), entry COc1cc(/C=N\Nc2cc(=O)n(C)c(=O)n2C)ccc1O 33.7 µM (active)

// query: COc1ccc(NC2CCCN(C(=O)c3ccccc3C(F)(F)F)C2)cc1 (stereo unspecified) 75.2 µM (active)

// query: Cc1ccc(NC(=O)NC(=O)CN2CCN(c3ccc(O)cc3)CC2)c(C)c1 64.9 µM (active)

// query: O=C1C(Nc2ccc(O)cc2)=C/C(=N/S(=O)(=O)c2cccs2)c2ccccc21 41.8 µM (active)

// query: COc1ccccc1N1CCN(Cc2cccc(Br)c2)CC1 130 µM (active)

// query: Fc1ccccc1Nc1nnc(S)s1 54.3 µM (active)

----------
Tested on: P388/ADR
method_summary: cells
Assay type: functional
reported_conditions: Mus musculus
Active and inactive are the calls of the source.
Classes to choose from: active, inactive

Known results for compounds:
- C/C=C(\C)c1cc(=O)c2c(C)cc3c(c2o1)C(=O)c1c(O)c(C2CC(C)(N(C)C)C(O)C(C)O2)cc(C2CC(N(C)C)C(O)C(C)O2)c1C3=O (stereo unspecified): inactive
- COc1cc(C2c3cc4c(cc3[C@@H](Nc3ccc(C#N)cc3)C3COC(=O)[C@H]23)OCO4)cc(OC)c1O (stereo partly specified): active
- CCC1(c2ccc(N)cc2)CCC(=O)NC1=O (stereo unspecified) [AMINOGLUTETHIMIDE]: inactive

Assay outcome for CN1OC(=O)N(C)C1c1ccccc1 (stereo unspecified) : what was it? inactive

// query: CN1CCN(c2ccc3[nH]c(-c4ccc5[nH]c(-c6ccc(O)cc6)nc5c4)nc3c2)CC1 inactive

// query: CC(C)=CC(=O)OC1C2C(C)C(=O)OC2C(O)C(C)C2C=CC(=O)C21C (stereo unspecified) active

----------
measurement_target: Kappa-type opioid receptor (Homo sapiens, UniProt P41145)
Sequence (P41145 whole entry): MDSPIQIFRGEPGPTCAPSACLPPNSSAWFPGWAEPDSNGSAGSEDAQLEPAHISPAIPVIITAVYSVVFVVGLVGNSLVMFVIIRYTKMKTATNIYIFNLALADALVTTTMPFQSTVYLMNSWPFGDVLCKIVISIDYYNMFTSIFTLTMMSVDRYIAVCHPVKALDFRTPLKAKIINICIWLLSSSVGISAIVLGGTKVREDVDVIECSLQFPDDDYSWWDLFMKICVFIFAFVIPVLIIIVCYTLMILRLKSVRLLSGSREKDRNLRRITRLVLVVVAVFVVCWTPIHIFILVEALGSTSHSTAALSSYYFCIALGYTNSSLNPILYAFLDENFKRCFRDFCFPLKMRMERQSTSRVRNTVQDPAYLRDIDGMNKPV
Assay type: functional
pIC50: −log10 of the molar value.
quantity_name: pIC50

* Cc1nc(-c2ccccn2)[nH]c(=S)c1Cl | < 4.49

Next, consider the following compound.
May I ask what pIC50 has been recorded for CCOc1ccc2nc(NC(=O)c3ccccn3)sc2c1 ? < 4.49

----------
method_summary: HEp-2 cell cytotoxicity, dose response, cytotoxicity control for RSV inhibitor project, HTS (AID 2410)
Format: functional
reported_conditions: human respiratory syncytial virus
Activity calls are given as the source filed them.
# reported CC50; entries follow

Guide cases for CC50, answers given:
• Cc1nc(Cl)c(Cl)n1CCOc1ccccc1 = 20.9 µM (active)
• Cc1sc(NC(=O)c2c(F)cccc2F)nc1-c1ccccc1 = 43.2 µM (active)
• Cc1cccc(C(=O)N2CCC(=O)N(C(COCc3ccc(Cl)cc3)Cc3ccccc3)CC2)c1 (stereo not drawn) = 19.6 µM (active)
• Cc1ccc2oc(C(=O)Nc3ccc(S(=O)(=O)Nc4onc(C)c4C)cc3)c(C)c2c1 = 25.9 µM (active)
• C=CCn1c(-c2ccc(Cl)cc2)ccc(C#N)c1=O = > 50 µM (active)

May I ask what CC50 has been recorded for O=C(Nc1nc2c(s1)CN(Cc1ccccc1)CC2)c1c(F)cccc1F ? 16.1 µM (active)

// query: Cc1cc(-c2ccccc2)c2c(O)[nH]nc2n1 48.2 µM (active)

// query: Nc1c(Cl)cc(-c2csc(N3CCCC3c3nc4cc(Cl)c(Cl)cc4n3CCCO)n2)cc1Cl (stereo not drawn) 35.1 µM (active)

----------
method_summary: Luminescence Cell-Based Dose Retest to Confirm Inhibitors of Cancer Stem Cells. [Related pubchem assays (depositor defined):AID2717, AID2721]
Format: functional
reported_conditions: Homo sapiens
Activity calls are given as the source filed them.
# reported AC50; entries follow

• COc1cc(Cl)c(NC2=CC(=O)C(=O)c3ccccc32)c(OC)c1 = 1.15 µM (active)

May I ask what AC50 has been recorded for CCc1ccc([C@@H]2CC=C(C(=O)O)[C@H](c3ccc(Cl)cc3)N2S(=O)(=O)c2ccc(C)cc2)cc1 ? 7.7 µM (active)

// query: COc1ccc(C(c2c[nH]c3ccccc23)c2c[nH]c3ccccc23)cc1O 4.09 µM (active)

// query: CCOC(=O)c1cccc(C2=CC(=O)C[C@H](c3ccc(Cl)cc3)C2)c1 0.885 µM (active)

// query: C/C(=N\NC(N)=S)c1cc(-c2ccccc2)c(-c2ccccc2)s1 3.27 µM (active)

// query: O=C(CN=C(S)N(Cc1ccccc1)Cc1ccccc1F)NCCc1ccc(Cl)cc1 5.59 µM (active)

----------
# reported IC50; entries follow
measurement_target: Leucine aminopeptidase (Plasmodium falciparum 3D7)
Sequence (Q8IL11 whole entry): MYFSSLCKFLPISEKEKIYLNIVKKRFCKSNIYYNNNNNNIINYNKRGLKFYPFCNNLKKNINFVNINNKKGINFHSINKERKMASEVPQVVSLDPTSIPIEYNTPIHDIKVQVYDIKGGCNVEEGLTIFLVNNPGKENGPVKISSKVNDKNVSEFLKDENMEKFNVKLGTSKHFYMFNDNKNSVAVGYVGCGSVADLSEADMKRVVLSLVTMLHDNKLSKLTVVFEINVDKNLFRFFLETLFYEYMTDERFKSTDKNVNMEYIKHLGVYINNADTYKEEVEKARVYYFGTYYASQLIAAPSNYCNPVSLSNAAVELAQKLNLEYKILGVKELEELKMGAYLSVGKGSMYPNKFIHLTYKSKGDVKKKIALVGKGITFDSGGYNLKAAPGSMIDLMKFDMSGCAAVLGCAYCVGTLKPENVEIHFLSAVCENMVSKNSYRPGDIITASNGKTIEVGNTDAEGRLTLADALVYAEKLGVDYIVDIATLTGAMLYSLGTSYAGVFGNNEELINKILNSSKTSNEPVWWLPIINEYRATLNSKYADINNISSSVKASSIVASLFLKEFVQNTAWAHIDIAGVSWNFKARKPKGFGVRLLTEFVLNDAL
method_summary: P. falciparum M17LAP inhibitors, primary screen, biochemical, fluorogenic H-Leu-NHMec substrate, 1536-well (AID 1619)
Format: functional
Active and inactive are the calls of the source.

Guide cases for IC50, answers given:
- CCOc1ccccc1N1C(=O)CC(Sc2n[nH]c(-c3ccccc3)n2)C1=O (stereo not drawn): 8.97 µM (active)
- CC1=NNC(=O)C1CCC(=O)N/N=C/c1ccc(Cl)cc1 (stereo not drawn): 52.6 µM (active)

Next, consider the following compound.
May I ask what IC50 has been recorded for O=C(Nc1nc(=O)[nH]s1)c1ccccc1 ? 18.1 µM (active)

----------
measurement_target: Histone-lysine N-methyltransferase NSD2 (Homo sapiens)
Sequence (O96028 whole entry): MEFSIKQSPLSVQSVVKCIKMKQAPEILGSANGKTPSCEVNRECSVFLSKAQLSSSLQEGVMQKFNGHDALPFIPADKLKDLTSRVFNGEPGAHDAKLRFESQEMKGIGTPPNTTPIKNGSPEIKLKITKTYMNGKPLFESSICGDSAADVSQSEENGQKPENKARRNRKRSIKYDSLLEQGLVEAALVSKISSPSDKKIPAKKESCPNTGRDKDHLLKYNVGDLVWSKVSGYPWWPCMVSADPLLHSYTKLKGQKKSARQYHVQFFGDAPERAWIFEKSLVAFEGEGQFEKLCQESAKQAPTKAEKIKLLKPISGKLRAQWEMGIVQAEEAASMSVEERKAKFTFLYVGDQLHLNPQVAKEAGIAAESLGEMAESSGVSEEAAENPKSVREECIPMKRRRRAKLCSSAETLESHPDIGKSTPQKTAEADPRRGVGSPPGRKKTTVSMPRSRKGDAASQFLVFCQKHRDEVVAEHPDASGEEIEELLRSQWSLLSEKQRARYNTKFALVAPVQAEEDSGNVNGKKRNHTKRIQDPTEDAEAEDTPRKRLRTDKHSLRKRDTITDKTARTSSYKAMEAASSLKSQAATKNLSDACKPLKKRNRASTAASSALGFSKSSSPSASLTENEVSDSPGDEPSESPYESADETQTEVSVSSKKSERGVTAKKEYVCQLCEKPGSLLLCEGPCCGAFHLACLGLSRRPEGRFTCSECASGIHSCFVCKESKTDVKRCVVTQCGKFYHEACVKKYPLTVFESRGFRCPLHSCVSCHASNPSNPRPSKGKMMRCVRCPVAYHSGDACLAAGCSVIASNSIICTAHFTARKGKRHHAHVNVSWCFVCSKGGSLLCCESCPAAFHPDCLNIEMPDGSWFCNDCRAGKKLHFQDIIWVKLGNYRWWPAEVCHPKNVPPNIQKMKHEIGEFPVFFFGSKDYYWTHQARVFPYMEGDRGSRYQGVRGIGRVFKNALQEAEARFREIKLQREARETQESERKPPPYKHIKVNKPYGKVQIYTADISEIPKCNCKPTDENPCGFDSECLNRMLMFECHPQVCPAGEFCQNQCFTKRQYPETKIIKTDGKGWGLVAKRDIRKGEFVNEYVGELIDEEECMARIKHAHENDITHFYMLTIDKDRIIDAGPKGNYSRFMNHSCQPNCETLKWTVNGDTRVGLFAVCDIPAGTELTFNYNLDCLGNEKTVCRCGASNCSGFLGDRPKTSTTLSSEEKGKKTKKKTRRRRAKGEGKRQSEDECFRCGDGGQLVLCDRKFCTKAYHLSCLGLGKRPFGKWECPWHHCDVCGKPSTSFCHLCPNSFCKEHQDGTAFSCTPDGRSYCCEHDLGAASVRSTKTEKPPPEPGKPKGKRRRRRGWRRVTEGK
Type: biochemical
Calls of active or inactive are those of the source.
Classes to choose from: active, inactive

Known results for molecules:
• COc1ccc(S(=O)(=O)Nc2cc(SCC(=O)O)c(O)c3ccccc23)cc1 = active
• CC(C)C1Nc2ccc(C(=O)O)cc2C2C=CCC21 (stereo unspecified) = inactive
• CC(=O)N1CCn2c3c(c(=O)c4cc(C)ccc42)CCC31 (stereo unspecified) = active
• Oc1ccc(/C=N/N=C(c2ccccc2)c2ccccc2)c(O)c1O = active
• CNCCCOc1cccc(Oc2ccccc2)c1 = inactive

We now examine a further molecule.
Assay outcome for N=C1/C(=C\c2ccc(O)c(O)c2)C(=O)N=C2SC(CC(=O)N3CCOCC3)=NN12 : what was it? active
